Sourced from patent US5985833A

# tested system: thrombin (Homo sapiens)
# Construct: PPACK-thrombin was prepared by adding a five-fold molar excess of PPACK (Calbiochem, San Diego, Calif.) to α-thrombin; purchased Enzyme Research Laboratories, Inc., South Bend, Ind
# measurement notes: Peptide inhibition of 125I-PPACK-thrombin binding to peak 2 fibrin clot
# condition set: peak 2 fibrin; tyrosine-sulfated peptides; FIG. 6
measured metric: pIC50
Entry type: numeric. Quantity: pIC50, the -log10 of concentration in molar units.

Ask: Supply reported pIC50 belonging to this sequence: AVRPEHPAETEYESLYPEDDL (AVRPEHPAETEYESLYPEDDL) [sulfated γ' A408-427]
Reply: 4.85
